Sourced from PubChem BioAssay (NCI)

system: TK-10 renal; assay: NCI-60 one-dose screen, 48 h (100 = growth as untreated, 0 = no growth, -100 = all killed); conditions: 10 µM unless noted
This is part of a sample that, as a whole, favours compounds with a hit. Of some 83,000 tested, about 20% had one in any assay.
Result type: growth (%)
# unit: % | format: bare number

Worked examples follow.
CN(C)CCCC1(c2ccc(F)cc2)OCc2cc(-c3csc4ccccc34)ccc21 (centres undefined)	62.1
Cc1ccc(Cc2cnc(NC(=O)/C=C/c3ccc(C)o3)s2)cc1	68
Cn1c(C#N)ccc1-c1ccc(F)c(NC(=O)c2ccc(F)cc2)c1	86
CC(=O)c1ccc(-n2cc(CN3CCN(c4cc5c(cc4F)c(=O)c(C(=O)O)cn5C4CC4)CC3)nn2)cc1	103
O=C(CN1C(=O)S/C(=C\C(Cl)=C\c2ccccc2)C1=O)NC1CCS(=O)(=O)C1 (centres undefined)	64

Task: Please give the measured growth for this molecule: COCCn1cc(-c2nc(-c3c[nH]c4ncccc34)cs2)c2ccccc21
Result: 36.2

Task: Please give the measured growth for this molecule: CCn1cc(Cc2cc(C(=O)Nc3cc4cc(OC)c(OC)cc4c(C)n3)ccc2Cl)cn1
Result: 73.7

Task: Please give the measured growth for this molecule: Cc1ccc(S(=O)(=O)OC[C@]23CCC(C)(C)C[C@H]2C2=CC[C@@H]4[C@@]5(C)CCCNC(C)(C)[C@@H]5CC[C@@]4(C)[C@]2(C)CC3)cc1
Result: 73

Task: Please give the measured growth for this molecule: CN(C)/C(N)=N/N=C(\c1ccccc1)c1ccccn1
Result: 94.6
